- SUBJECT OF TEST: SYK (Homo sapiens)
pIC50: −log10 of the molar value.
The following molecules are shown together with reported pIC50 values.
EXPERIMENTAL READOUT: pIC50

[[record]]
molecule = "CC/C=C\\CC(=O)Nc1cc(Nc2nccc(-n3cc(CN(C)C)c(-c4ccccc4)n3)n2)c(OC)cc1N1CCOCC1 [Compound 156, reference compound]"
result = "< 6.00"

[[record]]
molecule = "CCC(=O)Nc1cc(Nc2nccc(-n3cc(CN(C)C)c(-c4ccccc4)n3)n2)c(OC)cc1N1CCOCC1 [Compound 157, reference compound]"
result = "< 6.00"

[[record]]
molecule = "C=CC(=O)Nc1cc(Nc2nccc(-n3cc(CN4CCC4)c(-c4ccccc4)n3)n2)c(OC)cc1N1CCOCC1 [Compound 78]"
result = "< 6.00"


====

- SUBJECT OF TEST: EGFR mutant Del19 (E746-A750) (Homo sapiens, UniProt P00533, DEL746-750)
- Construct: truncated human JAK3, EGFR mutants such as del E746-A750; purchased Carna Biosciences
- Sequence (P00533 with tags, fused parts or gaps DEL746-750 limits assumed): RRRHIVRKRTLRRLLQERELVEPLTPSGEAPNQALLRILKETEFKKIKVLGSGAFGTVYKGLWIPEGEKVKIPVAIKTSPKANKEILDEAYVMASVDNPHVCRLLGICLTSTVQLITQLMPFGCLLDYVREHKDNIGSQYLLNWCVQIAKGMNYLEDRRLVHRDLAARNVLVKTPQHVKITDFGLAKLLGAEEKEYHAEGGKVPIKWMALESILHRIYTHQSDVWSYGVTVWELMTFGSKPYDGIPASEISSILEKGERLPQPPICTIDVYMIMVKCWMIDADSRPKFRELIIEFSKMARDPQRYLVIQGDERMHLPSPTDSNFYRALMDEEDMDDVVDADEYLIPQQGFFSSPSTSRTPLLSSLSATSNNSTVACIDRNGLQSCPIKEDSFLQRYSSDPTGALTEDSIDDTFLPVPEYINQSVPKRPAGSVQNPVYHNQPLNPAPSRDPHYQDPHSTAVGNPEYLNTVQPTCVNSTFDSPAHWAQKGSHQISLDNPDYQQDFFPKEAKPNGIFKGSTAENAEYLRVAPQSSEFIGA
- ASSAY NOTES: Kinase inhibition assay, EGFR del E746-A750;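 also: truncated human EGFR mutant kinase, two-hour preincubation with compound, then one-hour reaction with ATP and ULight-PolyGT peptide, LANCE Europium-antibody phosphorylation readout, IC50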
- Type: biochemical
- CONDITION DETAILS: read-out: EGFR mutants Del19 (E746-A750)
EXPERIMENTAL READOUT: IC50

[[record]]
compound = "C=CC(=O)Nc1cc(Nc2ncc(C)c(-n3cc(CN(C)C)c(C4CC4)n3)n2)c(OC)cc1N1CCOCC1"
result = "< 20 nM"

[[record]]
compound = "C=CC(=O)Nc1cc(Nc2nccc(-n3cc(CN(C)C)c(-c4ccccc4)n3)n2)c(OC)cc1N(C)CCOC"
result = "< 20 nM"

[[record]]
compound = "C=CC(=O)Nc1cc(Nc2nccc(-n3cc(CN4CC[C@@H](N(C)C)C4)cn3)n2)c(OC)cc1N1CCOCC1"
result = "201 to 1000 nM"

[[record]]
compound = "Cc1cc(Nc2nccc(-n3cc(CN4CC[C@@H](O)C4)c(C)n3)n2)cc(C)c1OCCN1CCCC1 [Compound 148, reference compound]"
result = "> 1000 nM"

[[record]]
compound = "C=CC(=O)Nc1cc(Nc2ncc(C)c(-n3cc(CN(C)C)c(-c4ccccc4)n3)n2)c(OC)cc1N1CCOCC1"
result = "< 20 nM"

[[record]]
compound = "C=CC(=O)Nc1cc(Nc2nccc(-n3cc(CN4CC(O)C4)c(C)n3)n2)c(OC)cc1N1CCOCC1"
result = "< 20 nM"

[[record]]
compound = "C=CC(=O)Nc1cc(Nc2nccc(-n3cc(CO)c(C)n3)n2)c(OC)cc1N1CCOCC1"
result = "< 20 nM"

[[record]]
compound = "C=CC(=O)Nc1cc(Nc2nccc(-n3cc(CN4C[C@H](O)[C@H](OC)C4)c(C)n3)n2)c(OC)cc1N1CCOCC1"
result = "< 20 nM"

[[record]]
compound = "Cc1cc(Nc2nccc(-n3cc(CN4CC(O)C4)c(C)n3)n2)cc(C)c1OCCO [Compound 149, reference compound]"
result = "> 1000 nM"

[[record]]
compound = "CCC(=O)Nc1cc(Nc2nccc(-n3cc(CN(C)C)c(-c4ccccc4)n3)n2)c(OC)cc1N1CCOCC1 [Compound 157, reference compound]"
result = "> 1000 nM"

[[record]]
compound = "C=CC(=O)Nc1cc(Nc2ncc(C)c(-n3cc(CN4CCC4)cn3)n2)c(OC)cc1N1CCOCC1"
result = "< 20 nM"

[[record]]
compound = "C=CC(=O)Nc1cc(Nc2nccc(-n3cc(CN(C)C)c(-c4ccc(C)cc4)n3)n2)c(OC)cc1N1CCOCC1"
result = "< 20 nM"

[[record]]
compound = "C=CC(=O)Nc1cc(Nc2nccc(-n3cc(CN4CCC4)c(C4CC4)n3)n2)c(OC)cc1N(C)C1COC1"
result = "< 20 nM"

[[record]]
compound = "C=CC(=O)Nc1cc(Nc2ncc(F)c(-n3cc(C)c(CN4CCC4)c3)n2)c(OC)cc1N(C)C"
result = "< 20 nM"

[[record]]
compound = "C=CC(=O)Nc1cc(Nc2nccc(-n3cc(CN(C)C)c(C(C)C)n3)n2)c(OC)cc1N(C)CCOC"
result = "< 20 nM"

[[record]]
compound = "C=CC(=O)Nc1cc(Nc2nccc(-n3cc(CN(C)C)c(C(C)(C)C)n3)n2)c(OC)cc1N1CCOCC1"
result = "< 20 nM"

[[record]]
compound = "C=CC(=O)Nc1cc(Nc2nccc(-n3cc(CN(C)C)c(C(C)(C)C)n3)n2)c(OC)cc1N(CC)CCOC"
result = "< 20 nM"

[[record]]
compound = "C=CC(=O)Nc1cc(Nc2ncc(C)c(-n3cc(CN4CCC4)c(C4CC4)n3)n2)c(OC)cc1N1CCOCC1"
result = "< 20 nM"

[[record]]
compound = "C=CC(=O)Nc1cc(Nc2ncc(F)c(-n3cc(CN(C)C)c(-c4ccoc4)c3)n2)c(OC)cc1N1CCOCC1"
result = "< 20 nM"


====

- SUBJECT OF TEST: EGFR mutant T790M (Homo sapiens, UniProt P00533, T790M)
- Construct: truncated human JAK3, EGFR mutants such as del E746-A750
- Sequence (P00533 669-1210 T790M limits assumed): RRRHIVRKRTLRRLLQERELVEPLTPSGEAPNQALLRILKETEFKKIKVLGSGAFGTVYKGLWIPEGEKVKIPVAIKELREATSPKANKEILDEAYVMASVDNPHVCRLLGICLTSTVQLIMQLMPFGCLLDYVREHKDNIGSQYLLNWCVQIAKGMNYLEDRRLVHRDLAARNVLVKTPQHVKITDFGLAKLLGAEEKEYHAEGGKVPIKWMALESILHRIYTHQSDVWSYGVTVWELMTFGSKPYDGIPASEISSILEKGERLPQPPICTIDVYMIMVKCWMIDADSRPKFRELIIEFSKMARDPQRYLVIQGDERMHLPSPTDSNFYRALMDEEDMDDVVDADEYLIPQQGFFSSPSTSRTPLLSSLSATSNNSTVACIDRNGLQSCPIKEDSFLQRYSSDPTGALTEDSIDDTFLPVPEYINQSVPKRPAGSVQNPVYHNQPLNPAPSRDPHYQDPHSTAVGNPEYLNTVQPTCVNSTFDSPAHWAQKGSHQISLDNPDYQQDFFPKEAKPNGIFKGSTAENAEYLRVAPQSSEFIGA
- ASSAY NOTES: Kinase inhibition assay, EGFR mutant T790M;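 also: truncated human EGFR mutant enzyme preincubated two hours with compound, then ATP plus ULight-PolyGT peptide for one hour, Europium-labeled antibody LANCE detection, IC50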
- CONDITION DETAILS: biochemical potency
EXPERIMENTAL READOUT: IC50

[[record]]
compound = "C=CC(=O)Nc1cc(Nc2ncc(C)c(-n3cc(CN4CCC4)c(C(C)(C)C)n3)n2)c(OC)cc1N1CCOCC1"
experimental_readout = "IC50"
result = "0.02 to 0.2 µM"

[[record]]
compound = "C=CC(=O)Nc1cc(Nc2ncc(C)c(-n3cc(CN4CCC4)cn3)n2)c(OC)cc1N1CCCN(C)CC1"
experimental_readout = "IC50"
result = "< 0.02 µM"

[[record]]
compound = "C=CC(=O)Nc1cc(Nc2ncc(C)c(-n3cc(CN4CCC4)cn3)n2)c(OC)cc1C1=CCN(C)CC1"
experimental_readout = "IC50"
result = "< 0.02 µM"

[[record]]
compound = "C=CC(=O)Nc1cc(Nc2nccc(-n3cc(CN(C)C)c(-c4ccccc4)n3)n2)c(OC)cc1N(C)CCOC"
experimental_readout = "IC50"
result = "< 0.02 µM"

[[record]]
compound = "C=CC(=O)Nc1cc(Nc2nccc(-n3cc(CN4CCC4)c(-c4ccccc4)n3)n2)c(OC)cc1N(C)CCOC"
experimental_readout = "IC50"
result = "< 0.02 µM"

[[record]]
compound = "C=CC(=O)Nc1cc(Nc2nccc(-n3cc(CN(C)C)c(C(C)C)n3)n2)c(OC)cc1N1CCCC1"
experimental_readout = "IC50"
result = "< 0.02 µM"

[[record]]
compound = "C=CC(=O)Nc1cc(Nc2ncc(C)c(-n3cc(CN4CCC4)cn3)n2)c(OC(C)C)cc1N1CCOCC1"
experimental_readout = "IC50"
result = "0.02 to 0.2 µM"

[[record]]
compound = "C=CC(=O)Nc1cc(Nc2ncc(C)c(-n3cc(CN4CC(O)C4)cn3)n2)c(OC)cc1N1CCOCC1"
experimental_readout = "IC50"
result = "< 0.02 µM"

[[record]]
compound = "C=CC(=O)Nc1cc(Nc2nccc(-n3cc(CN(C)C)c(-c4cccs4)n3)n2)c(OC)cc1N1CCOCC1"
experimental_readout = "IC50"
result = "< 0.02 µM"

[[record]]
compound = "C=CC(=O)Nc1cc(Nc2nccc(-n3cc(CN4CCC4)cn3)n2)c(OC)cc1N1CCOCC1"
experimental_readout = "IC50"
result = "< 0.02 µM"

[[record]]
compound = "CCC(=O)Nc1cc(Nc2nccc(-n3cc(CN(C)C)c(-c4ccccc4)n3)n2)c(OC)cc1N1CCOCC1 [Compound 157, reference compound]"
experimental_readout = "IC50"
result = "> 1 µM"

[[record]]
compound = "C=CC(=O)Nc1cc(Nc2nccc(-n3cc(CN(C)C)c(-c4ccncc4)n3)n2)c(OC)cc1N1CCOCC1"
experimental_readout = "IC50"
result = "< 0.02 µM"

[[record]]
compound = "C=CC(=O)Nc1cc(Nc2nccc(-n3cc(CN4CCC4)c(C(C)(C)C)n3)n2)c(OC)cc1N(C)CCOC"
experimental_readout = "IC50"
result = "< 0.02 µM"

[[record]]
compound = "C=CC(=O)Nc1cc(Nc2nccc(-n3cc(CN(C)C)c(-c4cccnc4)n3)n2)c(OC)cc1N1CCOCC1"
experimental_readout = "IC50"
result = "< 0.02 µM"


====

# reported pIC50; entries follow
- SUBJECT OF TEST: EGFR mutant Del19/T790M (Homo sapiens, UniProt P00533, DEL746-750/T790M)
- Construct: truncated human JAK3, EGFR mutants such as del E746-A750; purchased Carna Biosciences
- Sequence (P00533 with tags, fused parts or gaps DEL746-750/T790M limits assumed): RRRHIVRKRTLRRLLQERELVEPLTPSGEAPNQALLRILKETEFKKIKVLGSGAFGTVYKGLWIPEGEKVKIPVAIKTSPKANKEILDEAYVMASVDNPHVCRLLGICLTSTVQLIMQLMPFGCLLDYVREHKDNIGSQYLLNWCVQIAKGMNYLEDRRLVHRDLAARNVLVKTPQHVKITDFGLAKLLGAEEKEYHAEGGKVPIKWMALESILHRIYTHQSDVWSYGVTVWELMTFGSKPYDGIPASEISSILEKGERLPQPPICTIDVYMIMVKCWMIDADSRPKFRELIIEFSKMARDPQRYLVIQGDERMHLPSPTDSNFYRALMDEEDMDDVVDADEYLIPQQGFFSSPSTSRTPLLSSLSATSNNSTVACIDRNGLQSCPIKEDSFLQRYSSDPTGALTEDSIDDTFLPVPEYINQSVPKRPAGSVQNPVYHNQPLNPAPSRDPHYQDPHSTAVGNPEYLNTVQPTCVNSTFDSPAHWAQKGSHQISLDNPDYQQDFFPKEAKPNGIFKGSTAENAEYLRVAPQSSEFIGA
- ASSAY NOTES: Kinase inhibition assay, EGFR del E746-A750/T790M
- Type: biochemical
- CONDITION DETAILS: read-out: EGFR mutants Del19/T790M
pIC50: −log10 of the molar value.
EXPERIMENTAL READOUT: pIC50

[[record]]
compound = "COc1cc(N2CCOCC2)c(N)cc1Nc1nccc(-n2cc(CN(C)C)c(-c3ccccc3)n2)n1 [Compound 153, reference compound]"
experimental_readout = "pIC50"
result = "< 6.00"

[[record]]
compound = "C=CC(=O)Nc1cc(Nc2nccc(-n3cc(CN(C)C)c(-c4cccnc4)n3)n2)c(OC)cc1N1CCOCC1"
experimental_readout = "pIC50"
result = "> 7.70"

[[record]]
compound = "C=CC(=O)Nc1cc(Nc2ncc(C)c(-n3cc(CN4CC(O)C4)c(C)n3)n2)c(OC)cc1N1CCCCC1"
experimental_readout = "pIC50"
result = "> 7.70"

